System: RBM10 RRM1-ZnF (GST-tagged construct);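 further: 20 pmol protein with 1.5 nmol RNA pool for 30 min at 4°C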
testDescription: RNAcompete 7-mer binding Z-score; higher = stronger binding preference
Whole data set: some 16,000 sequences, median “Z-score” near -0.37, cut for the highest 2% near 3.2. The sample as a whole holds a higher share of the highest values than the screen did.
Parameter threshold = 0.007. Response is criterion met when RNAcompete 7-mer binding Z-score meets or exceeds it, else criterion not met.

query: Please check the record `GGAUGGC` and state if its RNAcompete 7-mer binding Z-score is at or above 0.007.
result: criterion met

query: Hi team, for `CCAGGGG` , is the recorded RNAcompete 7-mer binding Z-score at or above 0.007?
result: criterion met

query: Exam item: decide whether the reported RNAcompete 7-mer binding Z-score for `UAAGGGU` is at least 0.007.
result: criterion met

query: Hello, I need to know if `UGGUGGC` has measured RNAcompete 7-mer binding Z-score not below 0.007. Thanks!
result: criterion met

query: Exam item: decide whether the reported RNAcompete 7-mer binding Z-score for `CGGGUAU` is at least 0.007.
result: criterion met

query: Has `CACGGGU` a recorded RNAcompete 7-mer binding Z-score greater than or equal to 0.007?
result: criterion met

query: Determine whether this sequence has RNAcompete 7-mer binding Z-score no lower than 0.007: `CAGUGAG`
result: criterion met

query: Test whether the sequence `AUCUAAA` records RNAcompete 7-mer binding Z-score of 0.007 or higher.
result: criterion not met

query: Identify whether the reported RNAcompete 7-mer binding Z-score of the following sequence is 0.007 or greater: `GAUGUUA`
result: criterion not met

query: Does the reported RNAcompete 7-mer binding Z-score for `UUGGGAU` fall at or above the 0.007 mark?
result: criterion met

query: Hello, I need to know if `UAGGAGA` has measured RNAcompete 7-mer binding Z-score not below 0.007. Thanks!
result: criterion met

query: Please indicate if the recorded RNAcompete 7-mer binding Z-score for `UGACCCC` meets or exceeds 0.007.
result: criterion not met

query: Please tell me: is the sequence `ACGAGGU` at or over 0.007 in terms of RNAcompete 7-mer binding Z-score?
result: criterion met

query: Record `CUGCUAU` ; criterion: RNAcompete 7-mer binding Z-score no lower than 0.007. Met?
result: criterion not met

query: Item `GCAAGGU` with RNAcompete 7-mer binding Z-score of 0.007 or above?
result: criterion met

query: Test whether the sequence `CACCUUG` records RNAcompete 7-mer binding Z-score of 0.007 or higher.
result: criterion not met

query: Hi, just wondering whether `GGGGUAU` shows RNAcompete 7-mer binding Z-score of 0.007 or higher.
result: criterion met

query: Entry `AAGGAGA` : is its RNAcompete 7-mer binding Z-score no less than 0.007?
result: criterion met

query: Could you tell me if the measured RNAcompete 7-mer binding Z-score of `GAGGAGG` reaches 0.007 or more?
result: criterion met

query: Exam item: decide whether the reported RNAcompete 7-mer binding Z-score for `AGUCCCA` is at least 0.007.
result: criterion not met

query: Quick check, RNAcompete 7-mer binding Z-score >= 0.007? `GUCAGCU`
result: criterion not met

query: Entry `CAGCUCG` : is its RNAcompete 7-mer binding Z-score no less than 0.007?
result: criterion not met

query: RNAcompete 7-mer binding Z-score >= 0.007 for `CCUGAGG` ?
result: criterion met

query: # check: RNAcompete 7-mer binding Z-score of `CGACCGA` is greater than or equal to 0.007
result: criterion not met

query: Textbook exercise: given the entry `CAAGGGA` , state whether its RNAcompete 7-mer binding Z-score is greater than or equal to 0.007.
result: criterion met

query: Identify whether the reported RNAcompete 7-mer binding Z-score of the following sequence is 0.007 or greater: `AGAGUGG`
result: criterion met

query: Threshold query (RNAcompete 7-mer binding Z-score >= 0.007) on `GCCCAUA`
result: criterion not met

query: Please check the record `AACGCUG` and state if its RNAcompete 7-mer binding Z-score is at or above 0.007.
result: criterion not met

query: Check if RNAcompete 7-mer binding Z-score >= 0.007 (inclusive). Item: `GAAGGCU`
result: criterion met

query: Kindly determine if RNAcompete 7-mer binding Z-score recorded for `CGGGGGU` is above or exactly 0.007.
result: criterion met

query: Please tell me: is the sequence `UGGUGGG` at or over 0.007 in terms of RNAcompete 7-mer binding Z-score?
result: criterion met

query: Check this sequence for RNAcompete 7-mer binding Z-score at or above 0.007: `GGCUUAG`
result: criterion met

query: Threshold query (RNAcompete 7-mer binding Z-score >= 0.007) on `UUCUUAG`
result: criterion not met

query: Reported RNAcompete 7-mer binding Z-score at or above 0.007? `GUGUAAA`
result: criterion met

query: Assess whether reported RNAcompete 7-mer binding Z-score for `UGGUGGU` sits at 0.007 or higher.
result: criterion met

query: Item `AGGUACG` with RNAcompete 7-mer binding Z-score of 0.007 or above?
result: criterion met

query: API: above_or_equal(metric=RNAcompete 7-mer binding Z-score, cutoff=0.007) for item `CAUCACC`
result: criterion not met

query: Identify whether the reported RNAcompete 7-mer binding Z-score of the following sequence is 0.007 or greater: `UUGUUAC`
result: criterion not met

query: Reported RNAcompete 7-mer binding Z-score at or above 0.007? `GGGGGGU`
result: criterion met

query: Does RNAcompete 7-mer binding Z-score meet or surpass 0.007 for `AAGGAUA` ?
result: criterion met

query: Evaluate `CCUGAUC` : RNAcompete 7-mer binding Z-score at minimum 0.007?
result: criterion not met

query: Is it the case that `GGGGUAC` has RNAcompete 7-mer binding Z-score reaching or exceeding 0.007?
result: criterion met

query: Hi, just wondering whether `GCGAGGA` shows RNAcompete 7-mer binding Z-score of 0.007 or higher.
result: criterion met

query: Evaluate `GCAAGGG` : RNAcompete 7-mer binding Z-score at minimum 0.007?
result: criterion met

query: Is it the case that `GAAGUGC` has RNAcompete 7-mer binding Z-score reaching or exceeding 0.007?
result: criterion met

query: Does `GAGGCCG` have a reported RNAcompete 7-mer binding Z-score of at least 0.007?
result: criterion met

query: Assess whether reported RNAcompete 7-mer binding Z-score for `CAGUGGA` sits at 0.007 or higher.
result: criterion met

query: API: above_or_equal(metric=RNAcompete 7-mer binding Z-score, cutoff=0.007) for item `UUAUACA`
result: criterion not met

query: Entry `UGCUAGA` : is its RNAcompete 7-mer binding Z-score no less than 0.007?
result: criterion not met

query: hey, is RNAcompete 7-mer binding Z-score for this one >= 0.007? `GUGGUAG`
result: criterion met

query: Please tell me: is the sequence `GAAGUGU` at or over 0.007 in terms of RNAcompete 7-mer binding Z-score?
result: criterion met

query: Kindly determine if RNAcompete 7-mer binding Z-score recorded for `ACCCGGU` is above or exactly 0.007.
result: criterion not met

query: Determine whether this sequence has RNAcompete 7-mer binding Z-score no lower than 0.007: `AGGGGCU`
result: criterion met

query: Hello, I need to know if `GUUCUGU` has measured RNAcompete 7-mer binding Z-score not below 0.007. Thanks!
result: criterion not met

query: Could you please find out whether `UCUAAGG` has RNAcompete 7-mer binding Z-score that meets 0.007 or exceeds it?
result: criterion not met

query: Is RNAcompete 7-mer binding Z-score for `CGGUGGU` at or above 0.007?
result: criterion met

query: Please tell me: is the sequence `GCCAGAG` at or over 0.007 in terms of RNAcompete 7-mer binding Z-score?
result: criterion met

query: Given `UAUAUAA` , state whether its RNAcompete 7-mer binding Z-score is at least 0.007.
result: criterion not met

query: # check: RNAcompete 7-mer binding Z-score of `UAAGGGG` is greater than or equal to 0.007
result: criterion met

query: Is it the case that `AGGGUAU` has RNAcompete 7-mer binding Z-score reaching or exceeding 0.007?
result: criterion met

query: In plain terms: is recorded RNAcompete 7-mer binding Z-score at least 0.007 for `UUUUCAU` ?
result: criterion not met

query: Could you verify whether the entry `UAAGGCU` shows RNAcompete 7-mer binding Z-score of no less than 0.007?
result: criterion met

query: Kindly determine if RNAcompete 7-mer binding Z-score recorded for `ACGAGGC` is above or exactly 0.007.
result: criterion met

query: Exam item: decide whether the reported RNAcompete 7-mer binding Z-score for `GUAGACC` is at least 0.007.
result: criterion met

query: Determine whether this sequence has RNAcompete 7-mer binding Z-score no lower than 0.007: `GGAGUGA`
result: criterion met

query: Quick check, RNAcompete 7-mer binding Z-score >= 0.007? `GGGUGGC`
result: criterion met

query: Assess whether reported RNAcompete 7-mer binding Z-score for `AGAGCAG` sits at 0.007 or higher.
result: criterion met

query: Could you tell me if the measured RNAcompete 7-mer binding Z-score of `GCGUAGC` reaches 0.007 or more?
result: criterion not met

query: Say whether `CAAGGGG` shows RNAcompete 7-mer binding Z-score of 0.007 or more.
result: criterion met

query: Is RNAcompete 7-mer binding Z-score at least 0.007? Consider `GACGAAC`
result: criterion not met

query: # check: RNAcompete 7-mer binding Z-score of `GGGGGGC` is greater than or equal to 0.007
result: criterion met

query: RNAcompete 7-mer binding Z-score >= 0.007 for `ACGUGGG` ?
result: criterion met

query: Identify whether the reported RNAcompete 7-mer binding Z-score of the following sequence is 0.007 or greater: `GAAGUGG`
result: criterion met

query: Decide: is the reported value of RNAcompete 7-mer binding Z-score for `CGGGGUU` equal to or greater than 0.007?
result: criterion met

query: Could you tell me if the measured RNAcompete 7-mer binding Z-score of `CGGGUAA` reaches 0.007 or more?
result: criterion met

query: # bool: RNAcompete 7-mer binding Z-score of `UACGUGU` >= 0.007
result: criterion not met

query: RNAcompete 7-mer binding Z-score >= 0.007 for `GUGGAGC` ?
result: criterion met

query: Dear colleague, could you confirm whether `AGGGGAC` has RNAcompete 7-mer binding Z-score at or above 0.007?
result: criterion met

query: Decide: is the reported value of RNAcompete 7-mer binding Z-score for `UUAUCAG` equal to or greater than 0.007?
result: criterion not met

query: Could you please find out whether `UGGGGAC` has RNAcompete 7-mer binding Z-score that meets 0.007 or exceeds it?
result: criterion met

query: Given the entry `CCUCAUC` , answer whether its RNAcompete 7-mer binding Z-score meets or surpasses 0.007.
result: criterion not met

query: Evaluate `AGGGGGG` : RNAcompete 7-mer binding Z-score at minimum 0.007?
result: criterion met

query: Decide: RNAcompete 7-mer binding Z-score of `AGAUGGU` >= 0.007?
result: criterion met

query: I'd appreciate it if you could say whether `GGGGUAA` has RNAcompete 7-mer binding Z-score at least equal to 0.007.
result: criterion met

query: # check: RNAcompete 7-mer binding Z-score of `CUCAAAU` is greater than or equal to 0.007
result: criterion not met

query: Hello, I need to know if `GCCGUUA` has measured RNAcompete 7-mer binding Z-score not below 0.007. Thanks!
result: criterion not met

query: # bool: RNAcompete 7-mer binding Z-score of `UGGGUAA` >= 0.007
result: criterion met
